- procedure-details: qHTS for Inhibitors of human tyrosyl-DNA phosphodiesterase 1 (TDP1): qHTS in cells in absence of CPT; note: nearly all actives have a fitted effect of over 55% in size
- experimental-setup: DT40 Tdp1-/- hTDP1 cells, no CPT, ATP luminescence, 48 h
The whole screen tested about 420,000 compounds, of which about 64,000 (15%) were called active. Another 27% or so got no clear call; they are omitted. Calls come from the whole dose curve; as a rule, active = well fitted inhibition curve with a large enough effect; inconclusive = small, poorly fitted or top-dose-only effect; inactive = flat fitted curve, though single readings scatter. The list is a sample of the results.
A correct response names exactly one class from yes (1) for active, no (0) for inactive

CC(=O)NCC(=O)N(Cc1ccco1)C1(C(=O)NC2CCCC2)CCCCC1; no (0)

Give the logged outcome of this assay for the following compound: Cc1ccc(S(=O)(=O)N2CCN(C(=O)COC(=O)/C=C/c3cccc(Cl)c3)CC2)c(C)c1
yes (1)

Give the logged outcome of this assay for the following compound: Cc1ccc(S(=O)(=O)N2CCN(C(=O)COC(=O)c3c(C)cc(C)cc3C)CC2)c(C)c1
yes (1)

Give the logged outcome of this assay for the following compound: CCCCOc1ccc(C(=O)NCC(=O)OCC(=O)N2CCN(S(=O)(=O)c3ccc(C)cc3C)CC2)cc1
no (0)

Give the logged outcome of this assay for the following compound: COc1ccc(/C=C/C(=O)OCC(=O)N2CCN(S(=O)(=O)c3ccc(C)cc3C)CC2)cc1OC
yes (1)

Give the logged outcome of this assay for the following compound: Cc1ccc(S(=O)(=O)N2CCN(C(=O)COC(=O)c3c(C)noc3C)CC2)c(C)c1
no (0)

Give the logged outcome of this assay for the following compound: Cc1nc(-c2ccc(F)cc2)c(CC(=O)Nc2cccc(S(=O)(=O)N3CCOCC3)c2)s1
no (0)

Give the logged outcome of this assay for the following compound: Cc1ccc(S(=O)(=O)N2CCN(C(=O)N3CCOCC3)CC2)c(C)c1
no (0)

Give the logged outcome of this assay for the following compound: COc1ccc(S(=O)(=O)N2CCN(C)CC2)c(C)c1
no (0)

* * *

- procedure-details: qHTS for Inhibitors of human tyrosyl-DNA phosphodiesterase 1 (TDP1): qHTS in cells in absence of CPT; note: nearly all actives have a fitted effect of over 55% in size
- experimental-setup: DT40 Tdp1-/- hTDP1 cells, no CPT, ATP luminescence, 48 h
- Protocol: Human tyrosyl-DNA phosphodiesterase 1 (TDP1) is a novel repair gene, and we propose to use it as a new target for anticancer drug development. […] For the primary screen, Tdp1-/-;hTDP1 cells will be exposed to small molecules in the presence or absence of CPT, and their growth kinetics will be evaluated after 48 hours by measuring ATP activity. […] The hit compounds will then be evaluated in the presence or absence of CPT using Tdp1-/- cells. […]
Among all 420,000 compounds or so, about 64,000 (15%) were called active. Not shown: some 27% with an inconclusive outcome. Calls come from the whole dose curve; as a rule, active = well fitted inhibition curve with a large enough effect; inconclusive = small, poorly fitted or top-dose-only effect; inactive = flat fitted curve, though single readings scatter. The list is a sample of the results.
A correct response names exactly one class from active, inactive

Give the logged outcome of this assay for the following compound: Cc1cccc(C)c1NC(=O)CNC(=O)c1c(C)nn(-c2ccccc2)c1C
inactive

Give the logged outcome of this assay for the following compound: COc1ccc(S(=O)(=O)N2CCN(c3ccc(F)cc3)CC2)cc1-c1noc(C)n1
inactive

Give the logged outcome of this assay for the following compound: Cn1c(SCC(=O)Nc2ccc(N3CCOCC3)cc2)nnc1C(F)(F)F
inactive

Give the logged outcome of this assay for the following compound: CCNC(=O)CCc1nc(-c2ccc(C)cc2)no1
inactive

Give the logged outcome of this assay for the following compound: COc1ccc(OC)c(-c2noc(N3CCN(c4cc(Cl)ccc4C)CC3)n2)c1
active

Give the logged outcome of this assay for the following compound: Cc1ccc(-c2noc(CCC(N)=O)n2)cc1
inactive
